Experiment: Relative volatility: N2 passed through the absorbent, condensate analysed by GC and Karl Fischer titration
Format: physicochemical
Conditions: 30 wt.-% aqueous solution, 50° C., 8 h, 30 L (STP)/h N2; Karl Fischer titration
MEASURED_PARAMETER: Water (in condensate) (wt %)
Write the number in wt % without appending the unit.

Which measured Water (in condensate) value corresponds to CN1CCN(CCCNC(C)(C)C)CC1 [TBAP-MPIP] ?
99.7

What about CC(C)(C)NCCN1CCCC1=O [TBAEPY, reference compound] ?
99.5

What about CN1CCN(CCNC(C)(C)C)CC1 [TBAE-MPIP] ?
99.3

What about COCCOCCOCCNC(C)(C)C [M3ETB, reference compound] ?
99.2

---

Experiment: Relative volatility: N2 passed through the absorbent, condensate analysed by GC and Karl Fischer titration
Type: physicochemical
Settings: 30 wt.-% aqueous solution, 50° C., 8 h, 30 L (STP)/h N2; GC
For each entry below, report its Amine (in condensate) value.
Write the number in wt % without appending the unit.

Which measured Amine (in condensate) value corresponds to CN1CCN(CCCNC(C)(C)C)CC1 [TBAP-MPIP] ?
0.3

What about COCCOCCOCCNC(C)(C)C [M3ETB, reference compound] ?
0.7

What about CN1CCN(CCNC(C)(C)C)CC1 [TBAE-MPIP] ?
0.7

What about CC(C)(C)NCCN1CCCC1=O [TBAEPY, reference compound] ?
0.2

---

For each entry below, report its pKa value.
Test: pKA value by titration with hydrochloric acid
Type: physicochemical
Settings: aqueous solution, aqueous solution 0.005 mol amine per liter, HCl 0.1 mol/L, 20° C.; read-out: pKA 3

Which measured pKa value corresponds to `CN1CCN(CCNC(C)(C)C)CC1` ?
5.47

What about `CN1CCN(CCCNC(C)(C)C)CC1` ?
5.8

What about CCN(CC)CCN1CCN(CC)CC1 [DEAE-EPIP, reference compound] ?
6.2

---

Assay: Relative volatility: N2 passed through the absorbent, condensate analysed by GC and Karl Fischer titration
Format: physicochemical
Details: 30 wt.-% aqueous solution, 200 mL, 50° C., 8 h, 30 L (STP)/h N2, condenser 5° C.
For each entry below, report its Condensate value.
Write the number in mL without appending the unit.

Which measured Condensate value corresponds to COCCOCCOCCNC(C)(C)C [M3ETB, reference compound] ?
30.1

What about `CN1CCN(CCNC(C)(C)C)CC1` ?
29.28

What about `CN1CCN(CCCNC(C)(C)C)CC1` ?
30.3

What about CC(C)(C)NCCN1CCCC1=O [TBAEPY, reference compound] ?
28.8

---

For each entry below, report its CO2 loading after loading value.
Test: Acid gas loading capacity: CO2 loading and stripping experiment
Assay type: physicochemical
Details: 30 wt.-% amine in water, 40° C., ambient pressure, 8 L (STP)/h CO2, about 4 h
Write the number in mol CO2/molamine without appending the unit.

Which measured CO2 loading after loading value corresponds to `CN1CCN(CCCNC(C)(C)C)CC1` ?
1.41

What about CC(C)(C)NCCOCCO [TBAEE, 2-(2-tert-butylaminoethoxy)ethanol, reference compound] ?
0.97

What about `CN1CCN(CCNC(C)(C)C)CC1` ?
1.46

What about CCN(CC)CCN1CCN(CC)CC1 [DEAE-EPIP, reference compound] ?
1.48
